target: mu opiate receptor (MOR) (Rattus norvegicus, UniProt P33535); construct: from tissue; host or cells: striatal tissue (membrane preparation); assay: [35S]GTPγS binding assay using striatal membranes (MOR agonist activity); assay type: biochemical; parameters: reference not given here; details: 1 μM compound + 1 μM β-funaltrexamine
Sequence (P33535 whole entry): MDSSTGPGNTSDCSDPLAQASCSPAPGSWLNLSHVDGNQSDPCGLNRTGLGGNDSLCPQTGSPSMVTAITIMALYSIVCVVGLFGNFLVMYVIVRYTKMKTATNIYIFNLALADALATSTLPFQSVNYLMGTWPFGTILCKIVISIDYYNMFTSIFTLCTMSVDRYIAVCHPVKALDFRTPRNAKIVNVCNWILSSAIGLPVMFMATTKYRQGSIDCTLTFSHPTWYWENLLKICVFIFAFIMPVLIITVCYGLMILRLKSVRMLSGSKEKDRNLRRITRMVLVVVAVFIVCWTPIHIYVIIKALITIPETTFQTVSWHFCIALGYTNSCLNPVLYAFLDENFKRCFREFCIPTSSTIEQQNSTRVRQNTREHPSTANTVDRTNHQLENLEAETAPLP
Assay Readout: MOR agonist activity, [35S]GTPγS binding to Gαo, 1 μM + BFNA

Problem: Any idea what its MOR agonist activity, [35S]GTPγS binding to Gαo, 1 μM + BFNA is? The compound is COc1ccc(C(=O)CC2c3c(cc4c(c3OC)OCO4)CC[N+]2(C)C)cc1 (stereo not drawn)
Solution: 20.2%

Problem: # MOR agonist activity, [35S]GTPγS binding to Gαo, 1 μM + BFNA lookup, item COc1cccc(OC)c1CC(=O)CC1c2c(cc3c(c2OC)OCO3)CC[N+]1(C)C.[I-] (stereo not drawn)
Solution: 65.1%

Problem: What MOR agonist activity, [35S]GTPγS binding to Gαo, 1 μM + BFNA value was documented for this compound, COc1ccccc1CC(O)CC1c2c(cc3c(c2OC)OCO3)CCN1C (stereo not drawn) ?
Solution: 90.1%

Problem: Fill in the blank: the reported MOR agonist activity, [35S]GTPγS binding to Gαo, 1 μM + BFNA of COc1cccc(CC(=O)CC2c3c(cc4c(c3OC)OCO4)CC[N+]2(C)C)c1OC (stereo not drawn) is ____.
Solution: 117.1%

Problem: For the compound shown here, COc1ccc(OC)c(CCC(=O)CC2c3c(cc4c(c3OC)OCO4)CC[N+]2(C)C)c1 (stereo not drawn) , give the reported MOR agonist activity, [35S]GTPγS binding to Gαo, 1 μM + BFNA.
Solution: 134.6%

Problem: Requested read-out: MOR agonist activity, [35S]GTPγS binding to Gαo, 1 μM + BFNA. Entry: COc1c2c(cc3c1C(CC(O)Cc1ccccc1C)N(C)CC3)OCO2 (stereo not drawn)
Solution: 111.0%

Problem: Name the recorded MOR agonist activity, [35S]GTPγS binding to Gαo, 1 μM + BFNA for COc1ccc(CCC(=O)CC2c3c(cc4c(c3OC)OCO4)CC[N+]2(C)C)c(OC)c1 (stereo not drawn) .
Solution: 166.4%

Problem: Recorded MOR agonist activity, [35S]GTPγS binding to Gαo, 1 μM + BFNA of COc1ccccc1CCC(=O)CC1c2c(cc3c(c2OC)OCO3)CC[N+]1(C)C (stereo not drawn) , please.
Solution: 83.8%

Problem: Please give the measured MOR agonist activity, [35S]GTPγS binding to Gαo, 1 μM + BFNA for this compound: COc1c2c(cc3c1C(CC(=O)Cc1ccccc1F)[N+](C)(C)CC3)OCO2.[I-] (stereo not drawn)
Solution: 117.5%
